- TARGET DESC: PD-1 (UniProt Q15116 25-167, limits assumed)
- Sequence (Q15116 25-167 limits assumed): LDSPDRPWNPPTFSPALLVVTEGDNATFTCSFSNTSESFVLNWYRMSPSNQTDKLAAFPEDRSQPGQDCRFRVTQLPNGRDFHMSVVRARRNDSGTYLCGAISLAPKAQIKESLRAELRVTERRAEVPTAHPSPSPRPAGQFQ
- ASSAY: ELISA, OD mutant/OD WT; ↓=less than 70%
MEASURED QUANTITY: binding activity vs wild type

1. anti-PD-1 antibody 2 heavy chain Y53C (antibody, human IgG4 S228P, kappa, V domains shown) VH: QVQLVESGGGVVQPGRSLRLDCKASGITFSNSGMHWVRQAPGKGLEWVAVIWCDGSKRYYADSVKGRFTISRDNSKNTLFLQMNSLRAEDTAVYYCATNDDYWGQGTLVTVSS VL: EIVLTQSPATLSLSPGERATLSCRASQSVSSYLAWYQQKPGQAPRLLIYDASNRATGIPARFSGSGSGTDFTLTISSLEPEDFAVYYCQQSSNWPRTFGQGTKVEIKR | < 70%
